Please respond with reported Cas9 with SSAP activity (normalized) for every item in the list.
system: gene editing with Cas9; experiment: Screen of 322 new SSAP proteins, gene editing activity with Cas9 (Table 5); type: cell-based; conditions: normalized

SSAP_149: SEQ ID NO: 318; unclassified Oscillibacter (protein, listed as Oscillibacter sp.) KEGLIQGTQSAQAAKKGPATMQDYIKKMQGEIAKALPSVLTPERFTRITLSALSTNPKLAQTTPKSFLGAMMTAAQLGMEPNTPLGQAYLIPFKNHGVLECQFQLGYKGLIDLAYRSGEVSTIQAQTVYENDEFEYELGLEPKLHHVPAKGERGEPVYFYAVFRTKDGGYGFEVMSVDDVRTHAKKYSKAYSNGPWQTNFEEMAKKTVLKKALKYAPLKTEFMRGLTSDETIKTEISEDMYSVPDETVIEAEGYEVDGDTGEVIERPADGQ: −2.092

Which value of Cas9 with SSAP activity (normalized) has been reported for SSAP_92: SEQ ID NO: 261; Edwardsiella piscicida (protein, listed as Edwardsiella piscicida) TNNQQPPIATADLQKAQSQAPAVKPDQKLINFINQPSMKGQIAAALPRHMAPDRMIRIITTEIRKTPALATCDMQSFIGSVVQCSQLGLEPGGALGHAYLLPFGNGKAKSGQSNVQLIIGYRGMIDLARRSGQIVSISARTVRDGDQFHYEYGLDETLKHVPGDNESSPITHVYAVAKLKDGGVQFEVMTFNQIEKVRGQSKAGNNGPWQTHWEEMAKKTVIRRLFKYLPVSIEMQKAVILDEKAEANIDQENASVISAEFSVVED in the records?
2.795
